assay_name: Dynamic vapor sorption (DVS) analysis
Format: physicochemical
setup_conditions: between about 0 to about 90% relative humidity (RH) at 25° C.
attribute_measured: DVS total mass change

compound="O=C(N[C@@H]1CCCC[C@H]1O)c1cnc(OCC(F)(F)F)c(-c2ccc(Cl)c(Cl)c2)c1 [Form B]" result_value="about 0.3 wt. %"
compound="O=C(N[C@@H]1CCCC[C@H]1O)c1cnc(OCC(F)(F)F)c(-c2ccc(Cl)c(Cl)c2)c1 [Form E]" result_value="about 0.3 wt. %"

Origin of measurements: patent US12134599B2
